# TEST PARAMETERS: 333.15 K; 10000 kPa; Liquid
± gives the expanded uncertainty stated by the source.
ASSAY ENDPOINT: mass density
Hey, just the number and the unit after it is fine.

Reference set (3 entries):
COMPOUND	mass density
CCOS(=O)(=O)[O-].CCn1cc[n+](C)c1 [1-ethyl-3-methylimidazolium ethyl sulfate]	1222.7 ± 2.7 kg/m3
CCn1cc[n+](CC)c1.O=S(=O)([N-]S(=O)(=O)C(F)(F)F)C(F)(F)F [1,3-diethylimidazolium bis[(trifluoromethyl)sulfonyl]imide]	1434.8 ± 3.7 kg/m3
CCn1cc[n+](C)c1.COS(=O)(=O)[O-] [1-ethyl-3-methylimidazolium methylsulfate]	1265.6 ± 2.8 kg/m3

From here, focus on the item given below.
Consider the compound shown here: CCCCCCCCCCn1cc[n+](C)c1.O=S(=O)([N-]S(=O)(=O)C(F)(F)F)C(F)(F)F What is its recorded mass density?
1254 ± 2.8 kg/m3

* * *

# TEST PARAMETERS: 298.15 K; 25000 kPa; Liquid
ASSAY ENDPOINT: mass density (kg/m3)
Give bare numbers, in kg/m3.

Reference set (2 entries):
COMPOUND	UNITS SYMBOL	mass density
CCCCCCCCCCn1cc[n+](C)c1.O=S(=O)([N-]S(=O)(=O)C(F)(F)F)C(F)(F)F	kg/m3	1297
CCn1cc[n+](C)c1.COS(=O)(=O)[O-] [1-ethyl-3-methylimidazolium methylsulfate]	kg/m3	1298

# batch size: 2; output mass density per entry
1. CCn1cc[n+](CC)c1.O=S(=O)([N-]S(=O)(=O)C(F)(F)F)C(F)(F)F [1,3-diethylimidazolium bis[(trifluoromethyl)sulfonyl]imide]
2. CCOS(=O)(=O)[O-].CCn1cc[n+](C)c1 [1-ethyl-3-methylimidazolium ethyl sulfate]

1482.5
1254.8

* * *

# TEST PARAMETERS: 303.15 K; 5000 kPa; Liquid
Provide the reported mass density of each item.
Numbers only, in kg/m3.

Reference set (3 entries):
MOLECULE	NUMERIC READOUT
CCCCCCCCCCn1cc[n+](C)c1.O=S(=O)([N-]S(=O)(=O)C(F)(F)F)C(F)(F)F	1278.3
CCn1cc[n+](CC)c1.O=S(=O)([N-]S(=O)(=O)C(F)(F)F)C(F)(F)F [1,3-diethylimidazolium bis[(trifluoromethyl)sulfonyl]imide]	1462.1
CCn1cc[n+](C)c1.COS(=O)(=O)[O-] [1-ethyl-3-methylimidazolium methylsulfate]	1285.4

Consider the molecule shown here: CCOS(=O)(=O)[O-].CCn1cc[n+](C)c1 [1-ethyl-3-methylimidazolium ethyl sulfate] What is its recorded mass density?
1242.7

* * *

Provide the reported mass density of each item.
# TEST PARAMETERS: 313.15 K; 35000 kPa; Liquid
Answers are plain numbers, in kg/m3.

# batch size: 4; output mass density per entry
1. CCOS(=O)(=O)[O-].CCn1cc[n+](C)c1 [1-ethyl-3-methylimidazolium ethyl sulfate]
2. CCCCCCCCCCn1cc[n+](C)c1.O=S(=O)([N-]S(=O)(=O)C(F)(F)F)C(F)(F)F
3. CCn1cc[n+](CC)c1.O=S(=O)([N-]S(=O)(=O)C(F)(F)F)C(F)(F)F [1,3-diethylimidazolium bis[(trifluoromethyl)sulfonyl]imide]
4. CCn1cc[n+](C)c1.COS(=O)(=O)[O-] [1-ethyl-3-methylimidazolium methylsulfate]

[1247.9, 1291.1, 1474.6, 1291.1]

* * *

Provide the reported mass density of each item.
# TEST PARAMETERS: 333.15 K; 2500 kPa; Liquid
One number for each entry, in kg/m3.

Reference set (3 entries):
COMPOUND	UNITS SYMBOL	mass density
CCn1cc[n+](C)c1.COS(=O)(=O)[O-] [1-ethyl-3-methylimidazolium methylsulfate]	kg/m3	1262.3
CCOS(=O)(=O)[O-].CCn1cc[n+](C)c1 [1-ethyl-3-methylimidazolium ethyl sulfate]	kg/m3	1219.2
CCn1cc[n+](CC)c1.O=S(=O)([N-]S(=O)(=O)C(F)(F)F)C(F)(F)F [1,3-diethylimidazolium bis[(trifluoromethyl)sulfonyl]imide]	kg/m3	1428.2

From here, focus on the item given below.
Consider the compound shown here: CCCCCCCCCCn1cc[n+](C)c1.O=S(=O)([N-]S(=O)(=O)C(F)(F)F)C(F)(F)F What is its recorded mass density?
1247.7

* * *

Provide the reported mass density of each item.
# TEST PARAMETERS: 298.15 K; 30000 kPa; Liquid
One number for each entry, in kg/m3.

COMPOUND	UNITS SYMBOL	mass density
CCn1cc[n+](C)c1.COS(=O)(=O)[O-] [1-ethyl-3-methylimidazolium methylsulfate]	kg/m3	1300

# batch size: 3; output mass density per entry
1. CCCCCCCCCCn1cc[n+](C)c1.O=S(=O)([N-]S(=O)(=O)C(F)(F)F)C(F)(F)F
2. CCOS(=O)(=O)[O-].CCn1cc[n+](C)c1 [1-ethyl-3-methylimidazolium ethyl sulfate]
3. CCn1cc[n+](CC)c1.O=S(=O)([N-]S(=O)(=O)C(F)(F)F)C(F)(F)F [1,3-diethylimidazolium bis[(trifluoromethyl)sulfonyl]imide]

1: 1300.3; 2: 1256.6; 3: 1486.1

* * *

# TEST PARAMETERS: 298.15 K; 2500 kPa; Liquid
± gives the expanded uncertainty stated by the source.
Provide the reported mass density of each item.
Hey, just the number and the unit after it is fine.

Reference set (3 entries):
MOLECULE	mass density
CCn1cc[n+](C)c1.COS(=O)(=O)[O-] [1-ethyl-3-methylimidazolium methylsulfate]	1289.1 ± 2.5 kg/m3
CCn1cc[n+](CC)c1.O=S(=O)([N-]S(=O)(=O)C(F)(F)F)C(F)(F)F [1,3-diethylimidazolium bis[(trifluoromethyl)sulfonyl]imide]	1465.5 ± 3 kg/m3
CCOS(=O)(=O)[O-].CCn1cc[n+](C)c1 [1-ethyl-3-methylimidazolium ethyl sulfate]	1245.2 ± 2.4 kg/m3

Consider the molecule shown here: CCCCCCCCCCn1cc[n+](C)c1.O=S(=O)([N-]S(=O)(=O)C(F)(F)F)C(F)(F)F What is its recorded mass density?
1280.8 ± 2.5 kg/m3

* * *

Provide the reported mass density of each item.
# TEST PARAMETERS: 353.15 K; 15000 kPa; Liquid
Give bare numbers, in kg/m3.

# batch size: 4; output mass density per entry
1. CCn1cc[n+](C)c1.COS(=O)(=O)[O-] [1-ethyl-3-methylimidazolium methylsulfate]
2. CCn1cc[n+](CC)c1.O=S(=O)([N-]S(=O)(=O)C(F)(F)F)C(F)(F)F [1,3-diethylimidazolium bis[(trifluoromethyl)sulfonyl]imide]
3. CCOS(=O)(=O)[O-].CCn1cc[n+](C)c1 [1-ethyl-3-methylimidazolium ethyl sulfate]
4. CCCCCCCCCCn1cc[n+](C)c1.O=S(=O)([N-]S(=O)(=O)C(F)(F)F)C(F)(F)F

[1253.4, 1419, 1211.4, 1242]

* * *

# TEST PARAMETERS: 353.15 K; 7500 kPa; Liquid
ASSAY ENDPOINT: mass density (kg/m3)
Answers are plain numbers, in kg/m3.

Reference set (3 entries):
COMPOUND	UNITS SYMBOL	NUMERIC READOUT
CCOS(=O)(=O)[O-].CCn1cc[n+](C)c1 [1-ethyl-3-methylimidazolium ethyl sulfate]	kg/m3	1207.8
CCCCCCCCCCn1cc[n+](C)c1.O=S(=O)([N-]S(=O)(=O)C(F)(F)F)C(F)(F)F	kg/m3	1235.5
CCn1cc[n+](C)c1.COS(=O)(=O)[O-] [1-ethyl-3-methylimidazolium methylsulfate]	kg/m3	1249.9

From here, focus on the item given below.
Consider the compound shown here: CCn1cc[n+](CC)c1.O=S(=O)([N-]S(=O)(=O)C(F)(F)F)C(F)(F)F [1,3-diethylimidazolium bis[(trifluoromethyl)sulfonyl]imide] What is its recorded mass density?
1412.2

* * *

# TEST PARAMETERS: 293.15 K; 35000 kPa; Liquid
Provide the reported mass density of each item.
Give bare numbers, in kg/m3.

Reference set (2 entries):
COMPOUND	UNITS SYMBOL	NUMERIC READOUT
CCOS(=O)(=O)[O-].CCn1cc[n+](C)c1 [1-ethyl-3-methylimidazolium ethyl sulfate]	kg/m3	1262.4
CCn1cc[n+](CC)c1.O=S(=O)([N-]S(=O)(=O)C(F)(F)F)C(F)(F)F [1,3-diethylimidazolium bis[(trifluoromethyl)sulfonyl]imide]	kg/m3	1495.2

# batch size: 2; output mass density per entry
1. CCCCCCCCCCn1cc[n+](C)c1.O=S(=O)([N-]S(=O)(=O)C(F)(F)F)C(F)(F)F
2. CCn1cc[n+](C)c1.COS(=O)(=O)[O-] [1-ethyl-3-methylimidazolium methylsulfate]

1: 1308; 2: 1305.6

* * *

# TEST PARAMETERS: 303.15 K; 2500 kPa; Liquid
ASSAY ENDPOINT: mass density (kg/m3)
Give bare numbers, in kg/m3.

COMPOUND	NUMERIC READOUT
CCn1cc[n+](CC)c1.O=S(=O)([N-]S(=O)(=O)C(F)(F)F)C(F)(F)F [1,3-diethylimidazolium bis[(trifluoromethyl)sulfonyl]imide]	1460.1
CCOS(=O)(=O)[O-].CCn1cc[n+](C)c1 [1-ethyl-3-methylimidazolium ethyl sulfate]	1241.6
CCCCCCCCCCn1cc[n+](C)c1.O=S(=O)([N-]S(=O)(=O)C(F)(F)F)C(F)(F)F	1276.4

From here, focus on the item given below.
Consider the compound shown here: CCn1cc[n+](C)c1.COS(=O)(=O)[O-] [1-ethyl-3-methylimidazolium methylsulfate] What is its recorded mass density?
1284.3
